target: Bcl-2 protein (histag-Bcl-2, UniProtKB P10415) (Homo sapiens (Human), UniProt P10415); test: Inhibition of Bcl-2 by the fluorescence polarisation technique; format: binding; conditions: incubation for 2 hours, read-out: IC50 (nM) Bcl-2 FP
Sequence (P10415 whole entry): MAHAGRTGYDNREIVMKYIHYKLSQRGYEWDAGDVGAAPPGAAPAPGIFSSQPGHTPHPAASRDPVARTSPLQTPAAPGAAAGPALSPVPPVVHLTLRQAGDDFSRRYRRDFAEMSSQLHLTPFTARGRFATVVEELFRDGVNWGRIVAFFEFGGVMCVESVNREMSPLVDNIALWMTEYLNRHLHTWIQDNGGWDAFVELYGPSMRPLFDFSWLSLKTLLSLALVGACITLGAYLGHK
Where a name gives a salt, the structure may show the parent alone.
Response field label takes true (1) when IC50 is strictly below 5 nM and false (0) in all other cases.

Exam item: Lab note: confirm whether the reported IC50 for this molecule is below 5 nM, equality not counting. molecule: COc1ccc(-c2cc(C(=O)N(c3ccc(O)cc3)c3cnn(C)c3)c(C)n2C)c(C(=O)N2Cc3ccccc3C[C@H]2CN2CCOCC2)c1 [Example 418, hydrochloride]
Marked response: false (0)

Exam item: Answer whether the molecule Cc1c(C(=O)N(c2ccc(O)cc2)c2cnc3c(c2)CCN3C)cc(-c2cc(Cl)ccc2C(=O)N2Cc3ccccc3C[C@H]2CN2CCOCC2)n1C [Example 388, dihydrochloride] has IC50 strictly less than 5 nM
Marked response: true (1)

Exam item: For this molecule, is IC50 lower than 5 nM? COc1cc(C(=O)N2Cc3ccccc3C[C@H]2CN2CCOCC2)c(-c2[nH]c(C)c(C(=O)N(c3ccc(O)cc3)c3cnn(C)c3)c2C)cc1F [Example 100, hydrochloride]
Marked response: false (0)

Exam item: Report whether reported IC50 is lower than 5 nM (strictly) for `Cc1c(C(=O)N(c2ccc(O)cc2)c2cnc3c(ccn3C)c2)cc(-c2cc3c(cc2C(=O)N2Cc4ccccc4C[C@H]2C)OCO3)n1C`
Marked response: false (0)

* * *

test system: RS4;11 leukaemia tumour line; experiment: In vitro cytotoxicity (Microculture Tetrazolium Assay); assay type: cell-based; details: RS4;11 cells, exposed for 48 hours, cell viability; hydrochloride; read-out: IC50 (nM) MTT RS4;11
Counter-ions that a name gives are not always drawn.
Kindly supply the reported IC50 values for the records listed here.
Could you give me the number in nM? Just the number is fine.

Exam item: GET /values?readout=IC50&item= Cc1c(C(=O)N(c2ccc(O)cc2)c2cnc3c(c2)CCN3C)cc(-c2cc(Cl)ccc2C(=O)N2Cc3ccccc3C[C@H]2CN2CCOCC2)n1C [Example 445, hydrochloride]
Marked response: 19

Exam item: Which measured IC50 value corresponds to Cc1c(C(=O)N(c2ccc(O)cc2)c2cnn(C3CCOC3)c2)cc(-c2cc(F)ccc2C(=O)N2Cc3ccccc3C[C@H]2CN2CCOCC2)n1C (single isomer, unassigned) [Example 403, hydrochloride] ?
Marked response: 289

* * *

target: Bcl-2 protein (histag-Bcl-2, UniProtKB P10415) (Homo sapiens (Human), UniProt P10415); test: Inhibition of Bcl-2 by the fluorescence polarisation technique; type: binding; conditions: incubation for 2 hours, read-out: IC50 (nM) Bcl-2 FP
Counter-ions that a name gives are not always drawn.
REPORTED ENDPOINT: IC50

Exam item: State its IC50 on Bcl-2 protein (histag-Bcl-2, UniProtKB P10415) (Homo sapiens (Human), UniProt P10415): Cl.[2H]C([2H])([2H])n1cc(N(C(=O)c2cc(-c3cc(Cl)ccc3C(=O)N3Cc4ccccc4C[C@H]3CN3CCOCC3)n(C)c2C)c2ccc(O)cc2)cc1C#N [Example 448]
Marked response: 2.4 nM

Exam item: Write down the reported IC50 of Cc1c(C(=O)N(c2ccc(O)cc2)c2cccc(C#N)c2)cc(-c2cc(F)ccc2C(=O)N2Cc3ccccc3C[C@H]2CN2CCOCC2)n1C [Example 419, hydrochloride] , test system: Bcl-2 protein (histag-Bcl-2, UniProtKB P10415) (Homo sapiens (Human), UniProt P10415).
Marked response: 2.8 nM

Exam item: Param readout= IC50; system= Bcl-2 protein (histag-Bcl-2, UniProtKB P10415) (Homo sapiens (Human), UniProt P10415); entry= COc1ccc(C(=O)N2Cc3ccccc3C[C@H]2CN2CCOCC2)c(-c2cc(C(=O)N(c3ccc(O)cc3)c3cnn(C)c3)c(C)n2C)c1 [Example 24, hydrochloride] ; returns value.
Marked response: 6.2 nM

Exam item: Value wanted: IC50 (Bcl-2 protein (histag-Bcl-2, UniProtKB P10415) (Homo sapiens (Human), UniProt P10415)) of entry Cc1c(C(=O)N(c2ccc(O)cc2)c2cnc(OCCN3CCOCC3)nc2)cc(-c2cc(Cl)ccc2C(=O)N2Cc3ccccc3C[C@H]2C)n1C [Example 456, hydrochloride]
Marked response: 2.7 nM

Exam item: Return IC50 measured with Bcl-2 protein (histag-Bcl-2, UniProtKB P10415) (Homo sapiens (Human), UniProt P10415) given this molecule: Cc1c(C(=O)N(c2ccccc2)c2ccc(O)cc2)cc(-c2cc(Cl)ccc2C(=O)N2Cc3ccccc3C[C@H]2CN2CCOCC2)n1C [Example 17, hydrochloride]
Marked response: 8 nM

Exam item: // fetch Bcl-2 protein (histag-Bcl-2, UniProtKB P10415) (Homo sapiens (Human), UniProt P10415) IC50 for Cc1c(N(C(=O)c2cc(-c3cc(Cl)ccc3C(=O)N3Cc4ccccc4C[C@H]3CN3CCOCC3)n(C)c2C)c2ccc(O)cc2)cnn1C [Example 432, hydrochloride]
Marked response: 3.4 nM

Exam item: Requested read-out IC50, target or system Bcl-2 protein (histag-Bcl-2, UniProtKB P10415) (Homo sapiens (Human), UniProt P10415), entry Cc1c(C(=O)N(c2ccncc2)c2ccc(O)cc2)cc(-c2cc3c(cc2C(=O)N2Cc4ccccc4C[C@H]2C)OCO3)n1C [Example 61, hydrochloride]
Marked response: 4.5 nM

Exam item: Enter reported IC50 observed with Bcl-2 protein (histag-Bcl-2, UniProtKB P10415) (Homo sapiens (Human), UniProt P10415) for CCn1c(-c2cc3c(cc2C(=O)N2Cc4ccccc4C[C@H]2CN2CCOCC2)OCO3)cc(C(=O)N(c2ccc(O)cc2)c2cnn(C)c2)c1C [Example 92, hydrochloride]
Marked response: 8.4 nM

Exam item: Find the measured IC50: item Cc1c(C(=O)N(c2ccc(O)cc2)c2ccc3c(cnn3C)c2)cc(-c2cc3c(cc2C(=O)N2Cc4ccccc4C[C@H]2CN2CCOCC2)OCO3)n1C [Example 14, hydrochloride] , target or system Bcl-2 protein (histag-Bcl-2, UniProtKB P10415) (Homo sapiens (Human), UniProt P10415).
Marked response: 3.7 nM

Exam item: Recall the recorded IC50 for Cc1c(C(=O)N(c2ccccc2)c2ccc(O)cc2)cc(-c2cc3c(cc2C(=O)N2Cc4ccccc4C[C@H]2CN2CCOCC2)OCCO3)n1C [Example 22, hydrochloride] with Bcl-2 protein (histag-Bcl-2, UniProtKB P10415) (Homo sapiens (Human), UniProt P10415) and state it.
Marked response: 6.6 nM

Exam item: Recall the recorded IC50 for Cc1c(C(=O)N(c2ccccc2)c2ccc(O)cc2)cc(-c2cc3c(cc2C(=O)N2Cc4ccccc4C[C@H]2C)OCO3)n1C [Example 43] with Bcl-2 protein (histag-Bcl-2, UniProtKB P10415) (Homo sapiens (Human), UniProt P10415) and state it.
Marked response: 5.1 nM

Just for reference, patent US9108983B2 is where these values come from.
